B1: PLAGL1 (parent)
chain: TKEKKHQCDHCERCFYTRKDVRRH

Variants of: B1
Test Protocol: protein stability index of a GFP-peptide fusion (GPS, HEK-293T) (PSI 1-6); higher = more stable;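 further: lentivirally expressed fusions sorted by FACS into six bins by GFP to DsRed ratio, PSI derived from sequencing read proportions per bin multiplied by bin number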
Stated Conditions: c terminus: a fixed tail appended
Measured Parameter: protein stability index

[[record]]
mutations = "Q7I"
numeric_result = 3.32

[[record]]
mutations = "K5E"
numeric_result = 3.67

[[record]]
mutations = "F15W"
numeric_result = 3.41

[[record]]
mutations = "Y16D"
numeric_result = 4.12

[[record]]
mutations = "C8P"
numeric_result = 3.17

[[record]]
mutations = "K19M"
numeric_result = 3.06

[[record]]
mutations = "H10Y"
numeric_result = 2.46

[[record]]
mutations = "H10D"
numeric_result = 3.79

[[record]]
mutations = "H6A"
numeric_result = 2.39

[[record]]
mutations = "R23C"
numeric_result = 3.49

[[record]]
mutations = "C14V"
numeric_result = 3.42

[[record]]
mutations = "H6S"
numeric_result = 2.88

[[record]]
mutations = "K4W"
numeric_result = 2.95

[[record]]
mutations = "R18E"
numeric_result = 3.61

[[record]]
mutations = "E12D"
numeric_result = 3.6

[[record]]
mutations = "C14K"
numeric_result = 3.78

[[record]]
mutations = "K19C"
numeric_result = 3.22

[[record]]
mutations = "H10C"
numeric_result = 3.33

[[record]]
mutations = "K19F"
numeric_result = 3.05

[[record]]
mutations = "D9M"
numeric_result = 3.5

[[record]]
mutations = "C8Q"
numeric_result = 3.53

[[record]]
mutations = "Y16N"
numeric_result = 4.2

[[record]]
mutations = "D9S"
numeric_result = 3.14

[[record]]
mutations = "D20F"
numeric_result = 3.14

[[record]]
mutations = "R22C"
numeric_result = 4.07

[[record]]
mutations = "K4Q"
numeric_result = 3.4

[[record]]
mutations = "Q7C"
numeric_result = 3.36

[[record]]
mutations = "R22A"
numeric_result = 3.54

[[record]]
mutations = "E12T"
numeric_result = 3.15

[[record]]
mutations = "K4C"
numeric_result = 3.87

[[record]]
mutations = "K5Y"
numeric_result = 3.19

[[record]]
mutations = "F15R"
numeric_result = 3.77

[[record]]
mutations = "H10W"
numeric_result = 2.67

[[record]]
mutations = "K2A"
numeric_result = 3.58

[[record]]
mutations = "Q7P"
numeric_result = 2.82

[[record]]
mutations = "K5W"
numeric_result = 3.06

[[record]]
mutations = "F15G"
numeric_result = 2.83

[[record]]
mutations = "E12N"
numeric_result = 3.19

[[record]]
mutations = "E3V"
numeric_result = 3.28

[[record]]
mutations = "F15K"
numeric_result = 3.94

[[record]]
mutations = "E12Y"
numeric_result = 3.3

[[record]]
mutations = "C8K"
numeric_result = 3.43

[[record]]
mutations = "C11L"
numeric_result = 3.71

[[record]]
mutations = "C11P"
numeric_result = 3.98

[[record]]
mutations = "V21W"
numeric_result = 3.58

[[record]]
mutations = "H6M"
numeric_result = 2.7


Measured values drawn from the supplement of paper PMC10567573 for this set.
